Target Desc: UniProt:P07339
Sequence (P07339 65-412, species assumed): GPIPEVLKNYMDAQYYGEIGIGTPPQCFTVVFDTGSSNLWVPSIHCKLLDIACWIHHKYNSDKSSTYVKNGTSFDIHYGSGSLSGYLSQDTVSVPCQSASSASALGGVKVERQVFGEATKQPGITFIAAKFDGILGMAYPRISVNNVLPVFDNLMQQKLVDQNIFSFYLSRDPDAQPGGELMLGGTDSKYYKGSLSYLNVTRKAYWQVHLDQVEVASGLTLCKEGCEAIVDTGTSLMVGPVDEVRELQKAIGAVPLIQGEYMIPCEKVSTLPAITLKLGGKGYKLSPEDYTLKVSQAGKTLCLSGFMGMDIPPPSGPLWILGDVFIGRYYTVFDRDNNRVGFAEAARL
Method Notes: Inhibition of cathepsin D activity (MALDI-TOF, substrate ELDLAVEFWHDR)
Assay type: biochemical
Measurement Setup: substrate peptide ELDLAVEFWHDR, pH 4.1, 37 degrees C, read-out: CD Ki
pKi: −log10 of the molar value.
Readout Type: pKi

1. Cc1csc([C@H]2CCCN2C(=O)c2cccc(C(=O)N[C@@H](Cc3ccccc3)[C@H](O)[C@H]3C[C@@H](OCc4ccccc4)CN3)c2)n1	6.30 to 6.52
2. Cc1csc([C@H]2CCCN2C(=O)c2cc(C(=O)N[C@@H](Cc3cc(F)cc(F)c3)[C@H](O)[C@H]3CCCN3)cc(-c3ncco3)c2)n1	> 6.52
3. Cc1csc([C@H]2CCCN2C(=O)c2cc(C(=O)N[C@@H](Cc3ccccc3)[C@H](O)[C@H]3CCCN3)cc(N(C)S(C)(=O)=O)c2)n1	< 6.30
4. Cc1coc([C@H]2CCCN2C(=O)c2cc(C(=O)N[C@@H](Cc3cc(F)cc(F)c3)[C@H](O)[C@H]3CCCN3)cc(-c3ncco3)c2)n1	6.30 to 6.52
5. Cc1csc([C@H]2CCCN2C(=O)c2cc(C(=O)N[C@@H](Cc3ccccc3)[C@H](O)[C@H]3C[C@@H](OCc4ccccc4)CN3)cc(-n3cccc3)c2)n1	> 6.52

Consider now this further compound.
Look up UniProt:P07339 data: pKi of Cc1csc([C@H]2CCCN2C(=O)c2cc(I)cc(C(=O)N[C@@H](Cc3ccccc3)[C@H](O)[C@H]3CCCN3)c2)n1 , then report it.
< 6.30
